TGT: CD3ε (SPR analyte) (UniProt P07766 23-126, limits assumed)
Sequence (P07766 23-126 limits assumed): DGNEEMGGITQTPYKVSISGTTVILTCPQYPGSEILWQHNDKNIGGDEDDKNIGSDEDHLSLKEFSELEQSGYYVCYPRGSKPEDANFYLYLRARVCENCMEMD
EXPERIMENT NOTES: SPR, scFv-Fc
Quick reference: pKd of the listed items.
Please report pKd as the negative decimal logarithm of the molar concentration, giving only the number.

binder="humanized scFv BG562P (scFv-Fc) (Fc fusion, BG561P with L4V in VL; not shown: human IgG1 Fc region, scFv fused to its N-terminus) scFv: EVQLVESGGGLVQPGGSLRLSCAASGFTFNTYAMNWVRQAPGKGLEWVARIRSKYNNYATYYADSVKDRFTISRDDAKNSLYLQMNSLRAEDTAVYYCVRHGNFGNSYVSWFAYWGQGTLVTVSSGGGGSGGGGSGGGGSEIVVTQSPATLSVSPGERATLSCRSSTGAVTTSNYANWVQQKPGQAPRGLIGGTNKRAPGIPARFSGSLSGDEATLTISSLQSEDFAVYYCALWYSNLWVFGGGTKVEIK" measured_value=8.50
binder="humanized scFv BG563P (scFv-Fc) (Fc fusion, BG561P with L4V in VL and A49G, D65G in VH; not shown: human IgG1 Fc region, scFv fused to its N-terminus) scFv: EVQLVESGGGLVQPGGSLRLSCAASGFTFNTYAMNWVRQAPGKGLEWVGRIRSKYNNYATYYADSVKGRFTISRDDAKNSLYLQMNSLRAEDTAVYYCVRHGNFGNSYVSWFAYWGQGTLVTVSSGGGGSGGGGSGGGGSEIVVTQSPATLSVSPGERATLSCRSSTGAVTTSNYANWVQQKPGQAPRGLIGGTNKRAPGIPARFSGSLSGDEATLTISSLQSEDFAVYYCALWYSNLWVFGGGTKVEIK" measured_value=8.80
binder="humanized sp34 scFv BG561P (scFv-Fc) (Fc fusion, scFv (VH-3xG4S-VK) fused to N-terminus of a human IgG1 Fc region; also called scFv-ized BG56P; not shown: human IgG1 Fc region, scFv fused to its N-terminus) scFv: EVQLVESGGGLVQPGGSLRLSCAASGFTFNTYAMNWVRQAPGKGLEWVARIRSKYNNYATYYADSVKDRFTISRDDAKNSLYLQMNSLRAEDTAVYYCVRHGNFGNSYVSWFAYWGQGTLVTVSSGGGGSGGGGSGGGGSEIVLTQSPATLSVSPGERATLSCRSSTGAVTTSNYANWVQQKPGQAPRGLIGGTNKRAPGIPARFSGSLSGDEATLTISSLQSEDFAVYYCALWYSNLWVFGGGTKVEIK" measured_value=8.30

query: Report pKd, nothing else, for this binder: humanized scFv BG564P (scFv-Fc) (Fc fusion, BG563P with N30S and N100S in VH; not shown: human IgG1 Fc region, scFv fused to its N-terminus) scFv: EVQLVESGGGLVQPGGSLRLSCAASGFTFSTYAMNWVRQAPGKGLEWVGRIRSKYNNYATYYADSVKGRFTISRDDAKNSLYLQMNSLRAEDTAVYYCVRHGNFGSSYVSWFAYWGQGTLVTVSSGGGGSGGGGSGGGGSEIVVTQSPATLSVSPGERATLSCRSSTGAVTTSNYANWVQQKPGQAPRGLIGGTNKRAPGIPARFSGSLSGDEATLTISSLQSEDFAVYYCALWYSNLWVFGGGTKVEIK
result: 8.86
